Target: T1, exon 6 peptide (ASSLRNDSSSSNRKAKNPPGDS), coated on ELISA plate (not fully specified)
T1 construct: No biotin is mentioned for the ELISA coat; also called a peptide of SCF248
T1 peptide: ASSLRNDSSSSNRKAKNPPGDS
Experiment: direct ELISA on coated peptide, IgG4, read at 450 nm
Protocol: A direct enzyme-linked immunosorbent assay (ELISA) was performed to evaluate binding of the clones of Example 2 (referred to in all additional examples as “mutants”) to the Exon 6 peptide. The mutants were expressed as full length IgG4 antibodies. The plate was incubated at 4° C. overnight. […] Both plates were washed with wash buffer twice. Then, the plates were blocked with blocking buffer for 1 hour at 37° C. […] Each plate was read at an absorbance of 450 nm. […]
readout label: absorbance at 0.1 ng/mL antibody
The number alone won't do; follow it with the unit.

{"binder": "B104P mutant expressed as full length IgG4 antibody (antibody, V domains shown, Full length IgG4) VH: QVQLVQSGAELKKPGSSVKISCKSSGYAFSSQWMNWVKQRPGQGLEWIGQIYPDDGDTHYNDKFKGKATLTADKSTSTAYMELSSLTSEDSAVYFCSSSNWVGSYWGQGTLVTVSS VL: DVVMTQSPLSLPVTLGQPASISCKSSQSLLEADGNTYLNWLQQRPGQSPRRLIYLVDRLDSGVPDRFSGSGSGTDFTLKISRVEAEDVGVYYCWQGTDLPQTFGGGTKVEIK", "absorbance at 0.1 ng/mL antibody": "0.0855 absorbance"}
{"binder": "A104P mutant expressed as full length IgG4 antibody (antibody, V domains shown, Full length IgG4) VH: QVQLVQSGAELKKPGSSVKISCKSSGYAFSSQWMNWVKQRPGQGLEWIGQIYPEDGDTHYNGKFKGKATLTADKSTSTAYMELSSLTSEDSAVYFCSSSNWVGSYWGQGTLVTVSS VL: DVVMTQSPLSLPVTLGQPASISCKSSQSLLEEDGNTYLNWLQQRPGQSPRRLIYLVDRLDSGVPDRFSGSGSGTDFTLKISRVEAEDVGVYYCWQGTDLPQTFGGGTKVEIK", "absorbance at 0.1 ng/mL antibody": "0.092 absorbance"}
{"binder": "B114P mutant expressed as full length IgG4 antibody (antibody, V domains shown, Full length IgG4) VH: QVQLVQSGAELKKPGSSVKISCKSSGYAFSSQWMNWVKQRPGQGLEWIGQIYPEDGDTHMNGKFKGKATLTADKSTSTAYMELSSLTSEDSAVYFCSSSNWDGSYWGQGTLVTVSS VL: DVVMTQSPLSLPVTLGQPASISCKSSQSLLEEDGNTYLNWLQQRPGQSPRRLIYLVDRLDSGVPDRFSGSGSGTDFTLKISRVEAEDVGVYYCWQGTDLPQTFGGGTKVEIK", "absorbance at 0.1 ng/mL antibody": "0.098 absorbance"}

Ask | Look up absorbance at 0.1 ng/mL antibody for this binder: H83P mutant expressed as full length IgG4 antibody (antibody, V domains shown, Full length IgG4) VH: QVQLVQSGAELKKPGSSVKISCKSSGYAFSSQWMNWVKQRPGQGLEWIGQIYPGDGDIHYNDKFKGKATLTADKSTSTAYMELSSLTSEDSAVYFCSSSNWVGSYWGQGTLVTVSS VL: DVVMTQSPLSLPVTLGQPASISCKSSQSLLESDGNTYLNWLQQRPGQSPRRLIYLVDRLDSGVPDRFSGSGSGTDFTLKISRVEAEDVGVYYCWQGTDLPQTFGGGTKVEIK
Reply | 0.204 absorbance

Ask | Look up absorbance at 0.1 ng/mL antibody for this binder: A64P mutant expressed as full length IgG4 antibody (antibody, V domains shown, Full length IgG4) VH: QVQLVQSGAELKKPGSSVKISCKSSGYAFSSNWMNWVKQRPGQGLEWIGQIYPEDGDTHYNGKFKGKATLTADKSTSTAYMELSSLTSEDSAVYFCSSSNWVGSYWGQGTLVTVSS VL: DVVMTQSPLSLPVTLGQPASISCKSSQSLLEEDGNTYLNWLQQRPGQSPRRLIYLVNRLDDGVPDRFSGSGSGTDFTLKISRVEAEDVGVYYCWQGTDLPQTFGGGTKVEIK
Reply | 0.122 absorbance

Ask | Look up absorbance at 0.1 ng/mL antibody for this binder: D44P mutant expressed as full length IgG4 antibody (antibody, V domains shown, Full length IgG4) VH: QVQLVQSGAELKKPGSSVKISCKSSGYAFSSQWMNWVKQRPGQGLEWIGQIYPEDGDIHYNGKFKGKATLTADKSTSTAYMELSSLTSEDSAVYFCSSSNWVGSYWGQGTLVTVSS VL: DVVMTQSPLSLPVTLGQPASISCKSSQSLLEEDGNTYLNWLQQRPGQSPRRLIYLVDRLDSGVPDRFSGSGSGTDFTLKISRVEAEDVGVYYCWQGSHLPQTFGGGTKVEIK
Reply | 0.0895 absorbance

Ask | Look up absorbance at 0.1 ng/mL antibody for this binder: B124P mutant expressed as full length IgG4 antibody (antibody, V domains shown, Full length IgG4) VH: QVQLVQSGAELKKPGSSVKISCKSSGYAFSSNWMNWVKQRPGQGLEWIGQIYPEDGDTHYNDKFKGKATLTADKSTSTAYMELSSLTSEDSAVYFCSSSNWVGSYWGQGTLVTVSS VL: DVVMTQSPLSLPVTLGQPASISCKSSQSLLEQDGNTYLNWLQQRPGQSPRRLIYLVDRLDSGVPDRFSGSGSGTDFTLKISRVEAEDVGVYYCWQGTDLPQTFGGGTKVEIK
Reply | 0.0985 absorbance

Ask | Look up absorbance at 0.1 ng/mL antibody for this binder: F54P mutant expressed as full length IgG4 antibody (antibody, V domains shown, Full length IgG4) VH: QVQLVQSGAELKKPGSSVKISCKSSGYAFSSQWMNWVKQRPGQGLEWIGQIYPEDGDTHMNGKFKTKATLTADKSTSTAYMELSSLTSEDSAVYFCSSSNWVGSYWGQGTLVTVSS VL: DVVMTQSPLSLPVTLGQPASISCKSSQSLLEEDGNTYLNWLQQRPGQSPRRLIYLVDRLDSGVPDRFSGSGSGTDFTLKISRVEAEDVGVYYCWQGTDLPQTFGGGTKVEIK
Reply | 0.11 absorbance
